# TARGET OF ASSAY: T1, mtDsbC-SARS-CoV-2 RBD wild type fusion protein (SARS-CoV-2, wild type (Wuhan-Hu-1), UniProt P0DTC2, biotin (EZ-Link NHS-PEG4-Biotin))
# T1 construct: also called RBD SARS-CoV-2 (wild type); mtDsbC-RBD; not shown: mtDsbC solubility tag, N-terminal, kept
# TEST METHOD NOTES: BLI; biotinylated mtDsbC-RBD (20 µg/mL) immobilised on streptavidin (SA) biosensors, Fabs as analytes at three nanomolar concentrations; Octet RED384, 30 °C, 1000 rpm, 1 × PBS Kinetics Buffer; 1:1 interaction model, global fit
# MEASUREMENT SETUP: both partners purified
The following binders are shown together with reported Kd values.
Express your answer in nM, writing the number without its unit.

Past entries and their recorded results:
REGN10987 (S95K) Fab (Fab, V domains shown) VH: QVQLVESGGGVVQPGRSLRLSCAASGFTFSNYAMYWVRQAPGKGLEWVAVISYDGSNKYYADSVKGRFTISRDNSKNTLYLQMNSLRTEDTAVYYCASGSDYGDYLLVYWGQGTLVTVSS VL: QSALTQPASVSGSPGQSITISCTGTSSDVGGYNYVSWYQQHPGKAPKLMIYDVSKRPSGVSNRFSGSKSGNTASLTISGLQSEDEADYYCNSLTKISTWVFGGGTKLTVL	30.5
REGN10933 (Casirivimab) Fab wild type (Fab, V domains shown, Fab heavy chain of REGN10933; Fab light chain of REGN10933; Polycistronic gene, light chain upstream of heavy chain; also called REGN10933 wild type; REGN10933 Fab) VH: QVQLVESGGGLVKPGGSLRLSCAASGFTFSDYYMSWIRQAPGKGLEWVSYITYSGSTIYYADSVKGRFTISRDNAKSSLYLQMNSLRAEDTAVYYCARDRGTTMVPFDYWGQGTLVTVSS VL: DIQMTQSPSSLSASVGDRVTITCQASQDITNYLNWYQQKPGKAPKLLIYAASNLETGVPSRFSGSGSGTDFTFTISGLQPEDIATYYCQQYDNLPLTFGGGTKVEIK	2.84

Next:
Sample REGN10987 (N31D) Fab (Fab, V domains shown) VH: QVQLVESGGGVVQPGRSLRLSCAASGFTFSDYAMYWVRQAPGKGLEWVAVISYDGSNKYYADSVKGRFTISRDNSKNTLYLQMNSLRTEDTAVYYCASGSDYGDYLLVYWGQGTLVTVSS VL: QSALTQPASVSGSPGQSITISCTGTSSDVGGYNYVSWYQQHPGKAPKLMIYDVSKRPSGVSNRFSGSKSGNTASLTISGLQSEDEADYYCNSLTSISTWVFGGGTKLTVL — what was its Kd?
17.9
